Values from the supplement of paper PMC10567573

B1: ADD1 (parent)
chain: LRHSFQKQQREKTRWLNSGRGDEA

- Variants of: B1
- Assay overview: protein stability index of a GFP-peptide fusion (GPS, HEK-293T) (PSI 1-6); higher = more stable;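 also: lentivirally expressed fusions sorted by FACS into six bins by GFP to DsRed ratio, PSI derived from sequencing read proportions per bin multiplied by bin number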
- Condition: c terminus: a fixed tail appended
Note to self: values exactly at 4 are Met. So protein stability index at or above 4 is Met, below is Not met.

Answered cases to consult:
>>> assigned_category("H3A")
"Not met"
>>> assigned_category("W15Y")
"Met"
>>> assigned_category("R14Y")
"Not met"
>>> assigned_category("Q9P")
"Not met"
>>> assigned_category("A24K")
"Met"
>>> assigned_category("S4T")
"Not met"
>>> assigned_category("A24H")
"Not met"
>>> assigned_category("F5P")
"Met"
>>> assigned_category("G19N")
"Not met"
>>> assigned_category("Q6T")
"Not met"

Q: Could you verify whether the entry `Q8W` shows protein stability index of no less than 4?
A: Not met

Q: Could you verify whether the entry `S18I` shows protein stability index of no less than 4?
A: Not met

Q: Could you verify whether the entry `R10I` shows protein stability index of no less than 4?
A: Not met

Q: Could you verify whether the entry `S18E` shows protein stability index of no less than 4?
A: Met

Q: Could you verify whether the entry `F5G` shows protein stability index of no less than 4?
A: Met

Q: Could you verify whether the entry `E11H` shows protein stability index of no less than 4?
A: Not met

Q: Could you verify whether the entry `R10H` shows protein stability index of no less than 4?
A: Met

Q: Could you verify whether the entry `A24T` shows protein stability index of no less than 4?
A: Not met

Q: Could you verify whether the entry `D22A` shows protein stability index of no less than 4?
A: Not met
